Target: Multidrug resistance-associated protein 1 (Homo sapiens, UniProt P33527)
Sequence (P33527 whole entry): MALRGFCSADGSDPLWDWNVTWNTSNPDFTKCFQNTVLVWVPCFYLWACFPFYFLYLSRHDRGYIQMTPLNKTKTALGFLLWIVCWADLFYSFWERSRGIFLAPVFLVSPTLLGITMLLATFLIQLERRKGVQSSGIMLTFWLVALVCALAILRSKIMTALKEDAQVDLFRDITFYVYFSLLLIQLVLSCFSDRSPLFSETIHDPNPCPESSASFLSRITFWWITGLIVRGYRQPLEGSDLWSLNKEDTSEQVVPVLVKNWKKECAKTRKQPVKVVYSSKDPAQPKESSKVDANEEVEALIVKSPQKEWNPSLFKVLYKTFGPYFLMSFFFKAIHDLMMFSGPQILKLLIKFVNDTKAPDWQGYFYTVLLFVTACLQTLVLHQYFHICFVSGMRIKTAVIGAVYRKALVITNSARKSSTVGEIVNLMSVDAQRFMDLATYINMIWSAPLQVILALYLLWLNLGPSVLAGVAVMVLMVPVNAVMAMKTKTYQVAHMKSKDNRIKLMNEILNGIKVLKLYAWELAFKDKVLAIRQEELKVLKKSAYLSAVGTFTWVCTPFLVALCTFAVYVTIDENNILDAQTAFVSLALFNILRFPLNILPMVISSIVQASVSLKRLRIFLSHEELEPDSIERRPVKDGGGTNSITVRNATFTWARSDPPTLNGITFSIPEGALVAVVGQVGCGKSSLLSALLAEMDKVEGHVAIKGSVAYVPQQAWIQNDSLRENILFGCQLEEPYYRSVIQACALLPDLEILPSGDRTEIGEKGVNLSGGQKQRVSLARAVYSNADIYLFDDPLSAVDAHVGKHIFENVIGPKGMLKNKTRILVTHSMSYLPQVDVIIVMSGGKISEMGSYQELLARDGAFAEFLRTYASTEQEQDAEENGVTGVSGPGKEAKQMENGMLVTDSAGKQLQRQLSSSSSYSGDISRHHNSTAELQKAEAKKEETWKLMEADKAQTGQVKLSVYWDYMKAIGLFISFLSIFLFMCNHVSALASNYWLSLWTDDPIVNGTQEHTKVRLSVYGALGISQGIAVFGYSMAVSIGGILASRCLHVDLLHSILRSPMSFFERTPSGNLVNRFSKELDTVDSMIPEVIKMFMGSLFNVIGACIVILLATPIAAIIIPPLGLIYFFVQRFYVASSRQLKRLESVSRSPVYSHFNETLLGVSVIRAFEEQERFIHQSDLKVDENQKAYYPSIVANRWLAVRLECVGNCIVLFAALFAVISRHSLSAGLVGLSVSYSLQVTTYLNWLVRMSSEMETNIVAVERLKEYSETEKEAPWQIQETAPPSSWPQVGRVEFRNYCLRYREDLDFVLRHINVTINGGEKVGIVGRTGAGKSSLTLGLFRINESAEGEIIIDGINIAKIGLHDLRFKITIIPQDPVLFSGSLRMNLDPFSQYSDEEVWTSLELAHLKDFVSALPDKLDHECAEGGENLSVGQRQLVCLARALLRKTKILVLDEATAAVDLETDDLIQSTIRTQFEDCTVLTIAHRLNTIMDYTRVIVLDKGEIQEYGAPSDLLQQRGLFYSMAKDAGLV
Test: Inhibition of MRP1 in human H69AR cells assessed as daunorubicin accumulation preincubated for 15 mins measured after 180 mins by flow cytometry
Type: cell-based
Classification by IC50 | ranges: c1 (below 0.8 µM), c2 (0.8 µM to below 1 µM), c3 (1 µM or more)

{"columns": ["Chem Smiles", "Discrete Label"],
 "data": [
  ["N#Cc1cn(-c2ccccc2)c2c(N3CCN(Cc4ccccc4)CC3)ncnc12", "c2"],
  ["N#Cc1c2n(c3c(N4CCN(CCc5ccccc5)CC4)ncnc13)CCCCC2", "c1"],
  ["N#Cc1cn(C2CC2)c2c(N3CCN(CCc4ccccc4)CC3)ncnc12", "c1"],
  ["N#Cc1c2n(c3c(N4CCNCC4)ncnc13)CCCC2", "c3"],
  ["N#Cc1c2n(c3c(NCc4ccccc4)ncnc13)CCCC2", "c3"],
  ["CC(C)n1cc(C#N)c2ncnc(N3CCN(CCc4ccccc4)CC3)c21", "c3"],
  ["N#Cc1c2n(c3c(N4CCN(c5ccccc5)CC4)ncnc13)CCCCC2", "c3"],
  ["N#Cc1cn(-c2ccccc2)c2c(N3CCN(CCc4ccccc4)CC3)ncnc12", "c1"],
  ["N#Cc1cn(Cc2ccccc2)c2c(N3CCN(Cc4ccccc4)CC3)ncnc12", "c2"]
]}
